# assay_protocol: Solubility, 24-hour equilibration at room temperature
# Assay type: physicochemical
# condition_context: organic solvent or mixture, thermodynamic from solid; Acetone, approx. at 25° C.
observable: solubility at 24 h (µg/mL)
Respond numerically; units are µg/mL and should not be typed.

// query Bench note: what solubility at 24 h did Cc1[nH]c2ccccc2c1CCNCc1ccc(/C=C/C(=O)NO)cc1 [Free base] show?
// result 6500

---

# assay_protocol: Solid-state stability
# Format: physicochemical
# condition_context: Bulk stability, 2 weeks, 50° C./75% r.h.
# Protocol: All samples were prepared/diluted to a concentration of 0.2 mg/mL in methanol prior to analysis by HPLC. A freshly prepared sample of each salt was used as the reference standard for external standard calibration analysis.
Each entry below carries its recorded % DP (total degradation products).
Respond numerically; units are % area and should not be typed.

Reference set, count: 3
compound	recorded_result
CS(=O)(=O)O.Cc1[nH]c2ccccc2c1CCNCc1ccc(/C=C/C(=O)NO)cc1 [Mesylate]	1.20
Cc1[nH]c2ccccc2c1CCNCc1ccc(/C=C/C(=O)NO)cc1.Cl [HCl]	0.56
Cc1[nH]c2ccccc2c1CCNCc1ccc(/C=C/C(=O)NO)cc1.O=C(O)/C=C\C(=O)O [Maleate]	0.58

# ---- query compound ----
// query Bench note: what % DP (total degradation products) did CC(O)C(=O)O.Cc1[nH]c2ccccc2c1CCNCc1ccc(/C=C/C(=O)NO)cc1.O (racemic) [Monohydrate DL-lactate salt] show?
// result 0.43

---

# assay_protocol: Solid-state stability
# Format: physicochemical
# condition_context: 1 week, 80° C.
# Method: All samples were prepared/diluted to a concentration of 0.2 mg/mL in methanol prior to analysis by HPLC. A freshly prepared sample of each salt was used as the reference standard for external standard calibration analysis.

compound	Bulk stability (XRPD)
Cc1[nH]c2ccccc2c1CCNCc1ccc(/C=C/C(=O)NO)cc1.Cl [HCl]	no change
Cc1[nH]c2ccccc2c1CCNCc1ccc(/C=C/C(=O)NO)cc1.O=C(O)/C=C\C(=O)O [Maleate]	no change
CC(O)C(=O)O.Cc1[nH]c2ccccc2c1CCNCc1ccc(/C=C/C(=O)NO)cc1.O (racemic) [Monohydrate DL-lactate salt]	no change

---

# assay_protocol: Solution stability (HPLC)
# Assay type: physicochemical
# condition_context: unstressed baseline of the stability study
Each entry below carries its recorded Unstressed (% Area).
Respond numerically; units are % Area and should not be typed.

Reference set, count: 4
compound	result_units	Unstressed (% Area)
CC(O)C(=O)O.Cc1[nH]c2ccccc2c1CCNCc1ccc(/C=C/C(=O)NO)cc1.O (racemic) [Monohydrate DL-lactate salt]	% Area	99.51
Cc1[nH]c2ccccc2c1CCNCc1ccc(/C=C/C(=O)NO)cc1 [Free base]	% Area	99.41
Cc1[nH]c2ccccc2c1CCNCc1ccc(/C=C/C(=O)NO)cc1.Cl [HCl]	% Area	99.63
CS(=O)(=O)O.Cc1[nH]c2ccccc2c1CCNCc1ccc(/C=C/C(=O)NO)cc1 [Mesylate]	% Area	99.30

# ---- query compound ----
// query Bench note: what Unstressed (% Area) did Cc1[nH]c2ccccc2c1CCNCc1ccc(/C=C/C(=O)NO)cc1.O=C(O)/C=C\C(=O)O [Maleate] show?
// result 99.48

---

Each entry below carries its recorded % DP (total degradation products).
# assay_protocol: Stability of mixtures with excipients
# Type: physicochemical
# condition_context: Mixture 2: 50% Starch 1500 + 5% MCC 102; 50° C./75% r.h., 2 weeks
Respond numerically; units are % area and should not be typed.

// query Bench note: what % DP (total degradation products) did Cc1[nH]c2ccccc2c1CCNCc1ccc(/C=C/C(=O)NO)cc1.O=C(O)/C=C\C(=O)O [Maleate] show?
// result 0.3

// query Bench note: what % DP (total degradation products) did CS(=O)(=O)O.Cc1[nH]c2ccccc2c1CCNCc1ccc(/C=C/C(=O)NO)cc1 [Mesylate] show?
// result 0.7

// query Bench note: what % DP (total degradation products) did Cc1[nH]c2ccccc2c1CCNCc1ccc(/C=C/C(=O)NO)cc1.Cl [HCl] show?
// result 0.5

// query Bench note: what % DP (total degradation products) did CC(O)C(=O)O.Cc1[nH]c2ccccc2c1CCNCc1ccc(/C=C/C(=O)NO)cc1.O (racemic) [Monohydrate DL-lactate salt] show?
// result 0.4

---

# assay_protocol: Stability of mixtures with excipients
# Type: physicochemical
# condition_context: Standard, freshly prepared
Each entry below carries its recorded % DP (total degradation products).
Respond numerically; units are % area and should not be typed.

molecule	% DP (total degradation products) [% area]
CS(=O)(=O)O.Cc1[nH]c2ccccc2c1CCNCc1ccc(/C=C/C(=O)NO)cc1 [Mesylate]	0.5
CC(O)C(=O)O.Cc1[nH]c2ccccc2c1CCNCc1ccc(/C=C/C(=O)NO)cc1.O (racemic) [Monohydrate DL-lactate salt]	0.4
Cc1[nH]c2ccccc2c1CCNCc1ccc(/C=C/C(=O)NO)cc1.Cl [HCl]	0.3

# ---- query molecule ----
// query Bench note: what % DP (total degradation products) did Cc1[nH]c2ccccc2c1CCNCc1ccc(/C=C/C(=O)NO)cc1.O=C(O)/C=C\C(=O)O [Maleate] show?
// result 0.2

---

# assay_protocol: Solid-state stability
# Format: physicochemical
# condition_context: Bulk stability, 2 weeks, 50° C.
observable: % DP (total degradation products) (% area)
Respond numerically; units are % area and should not be typed.

Reference set, count: 3
compound	observable	recorded_result
Cc1[nH]c2ccccc2c1CCNCc1ccc(/C=C/C(=O)NO)cc1.Cl [HCl]	% DP (total degradation products)	0.44
CC(O)C(=O)O.Cc1[nH]c2ccccc2c1CCNCc1ccc(/C=C/C(=O)NO)cc1.O (racemic) [Monohydrate DL-lactate salt]	% DP (total degradation products)	0.43
Cc1[nH]c2ccccc2c1CCNCc1ccc(/C=C/C(=O)NO)cc1.O=C(O)/C=C\C(=O)O [Maleate]	% DP (total degradation products)	0.71

# ---- query compound ----
// query Bench note: what % DP (total degradation products) did CS(=O)(=O)O.Cc1[nH]c2ccccc2c1CCNCc1ccc(/C=C/C(=O)NO)cc1 [Mesylate] show?
// result 0.80
